Target: T1, human tissue factor pathway inhibitor (TFPI) (human, UniProt P10646 29-304, limits assumed)
T1 construct: bought; also called hTFPI; human TFPI
T1 sequence (looked up): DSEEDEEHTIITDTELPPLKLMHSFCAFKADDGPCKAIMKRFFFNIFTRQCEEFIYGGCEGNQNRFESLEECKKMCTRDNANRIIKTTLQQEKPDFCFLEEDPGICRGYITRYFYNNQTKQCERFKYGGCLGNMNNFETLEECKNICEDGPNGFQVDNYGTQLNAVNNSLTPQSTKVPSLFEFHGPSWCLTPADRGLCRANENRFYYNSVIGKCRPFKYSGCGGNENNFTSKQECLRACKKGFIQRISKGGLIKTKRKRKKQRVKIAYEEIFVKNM
Test: SPR, TFPI immobilized
Property Measured: koff (s⁻¹)

Binder	Property Measured	Unit Descriptor	Quantitative Readout
gB9.7-IgG (4B7 HC N32D+G44S+K55Y+D62R+Y112D/LC S32R+N35I) (antibody, V domains shown, IgG format by its name) VH: QVQLQQSGPGLVKPSQTLSLTCAISGDSVSSDSAAWSWIRQSPSRGLEWLGIIYYRSKWYNRYAVSVKSRITINPDTSKNQFSLQLNSVTPEDTAVYYCARWHSDKHWGFDDWGQGTLVTVSS VL: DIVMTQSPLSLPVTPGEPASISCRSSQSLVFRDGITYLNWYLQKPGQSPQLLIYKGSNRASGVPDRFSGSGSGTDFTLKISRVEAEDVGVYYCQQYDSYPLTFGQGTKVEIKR	koff	s⁻¹	1.56e-05
B32.5 (4B7 HC D62R+Y112D/LC D33F+N35I) (Fab, V domains shown) VH: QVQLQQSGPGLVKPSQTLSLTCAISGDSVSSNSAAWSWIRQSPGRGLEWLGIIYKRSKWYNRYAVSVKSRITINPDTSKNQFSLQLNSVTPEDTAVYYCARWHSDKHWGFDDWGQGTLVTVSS VL: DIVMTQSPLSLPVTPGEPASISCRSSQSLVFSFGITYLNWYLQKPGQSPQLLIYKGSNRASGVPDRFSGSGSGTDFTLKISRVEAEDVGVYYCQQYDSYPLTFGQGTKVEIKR	koff	s⁻¹	3.19e-05
B9.7 (4B7 HC N32D+D62R+Y112D/LC S32R+N35I) (Fab, V domains shown) VH: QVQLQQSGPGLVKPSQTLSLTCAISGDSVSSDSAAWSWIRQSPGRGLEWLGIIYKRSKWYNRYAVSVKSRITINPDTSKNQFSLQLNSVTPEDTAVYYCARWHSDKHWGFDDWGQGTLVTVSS VL: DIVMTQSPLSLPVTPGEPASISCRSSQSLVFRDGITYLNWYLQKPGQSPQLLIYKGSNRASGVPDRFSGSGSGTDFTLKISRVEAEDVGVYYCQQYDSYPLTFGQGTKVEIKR	koff	s⁻¹	2.61e-05
